Where these numbers come from: patent US20170296650A1

Target: T1, hCMV gH + gL + UL128 + UL130 + UL131A (5-member complex; HEK293T co-transfectant) (hCMV, UniProt P12824 24-743; P16832 31-278; P16837 1-171; P16772 1-214)
T1 construct: whole, on cells; in the functional rows it stands for the complex on virions or transduced cells of the strain or isolate named in the readout; also called gH/gL/UL128-131A complex; pentameric complex
Assay: cell competition; competitor 10F7-biotin
Reported Inhibition of binding (%) values for the following binders.
Observed Property: Inhibition of binding (%)

binder="4I22 (antibody, human IgG1, V domains shown, fully human IgG1 with unaltered Fc; also called 4I22-biotin; 4122) VH: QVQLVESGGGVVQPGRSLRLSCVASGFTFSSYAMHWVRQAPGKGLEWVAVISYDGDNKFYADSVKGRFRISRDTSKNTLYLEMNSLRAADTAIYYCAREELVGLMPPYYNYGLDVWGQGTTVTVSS VL: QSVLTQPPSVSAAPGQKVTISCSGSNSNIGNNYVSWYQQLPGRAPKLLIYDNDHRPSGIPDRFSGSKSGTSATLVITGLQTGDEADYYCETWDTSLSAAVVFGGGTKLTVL" observed_property="Inhibition of binding (%)" measurement_units=% observed_measurement=100
binder="2C12 (antibody, V domains shown, human IgG; also called 2C12-biotin) VH: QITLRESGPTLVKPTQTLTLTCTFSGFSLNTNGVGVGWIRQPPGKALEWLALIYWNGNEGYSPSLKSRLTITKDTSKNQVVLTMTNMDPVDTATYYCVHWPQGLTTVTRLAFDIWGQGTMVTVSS VL: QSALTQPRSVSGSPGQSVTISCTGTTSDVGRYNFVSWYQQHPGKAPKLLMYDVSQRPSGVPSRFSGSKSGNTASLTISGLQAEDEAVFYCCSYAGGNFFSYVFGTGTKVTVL" observed_property="Inhibition of binding (%)" measurement_units=% observed_measurement=0
binder="10F7 (antibody, V domains shown, human IgG; also called 10F7-biotin) VH: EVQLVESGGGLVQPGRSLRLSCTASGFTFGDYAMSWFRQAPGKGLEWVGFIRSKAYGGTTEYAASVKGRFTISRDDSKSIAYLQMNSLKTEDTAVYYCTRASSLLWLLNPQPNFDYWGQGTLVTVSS VL: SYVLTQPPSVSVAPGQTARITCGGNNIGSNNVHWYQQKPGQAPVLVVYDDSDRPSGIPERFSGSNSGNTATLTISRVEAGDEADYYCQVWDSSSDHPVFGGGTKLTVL" observed_property="Inhibition of binding (%)" measurement_units=% observed_measurement=100
